Listing of entries alongside the reported IC50.
Target: T1, PD-1蛋白 (human, UniProt Q15116 25-167, limits assumed)
T1 construct: Recombinant PD-1 protein used in ELISA, SPR and BLI; also called PD-1[B]; (biotinylated)
T1 sequence (Q15116 25-167 limits assumed): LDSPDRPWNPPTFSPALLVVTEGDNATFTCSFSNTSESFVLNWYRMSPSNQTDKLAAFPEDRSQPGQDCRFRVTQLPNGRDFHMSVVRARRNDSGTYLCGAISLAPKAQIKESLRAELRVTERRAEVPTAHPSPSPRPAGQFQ
Experiment: competition ELISA: PD-L1 coated, biotinylated PD-1 0.5 ug/mL, antibody titrated
Form entry: value (µg/mL) — number only.

Answered cases to consult:
# Binder, IC50 [µg/mL]
records = [
    ("1C2-Agly (antibody, V domains shown, also called 19D4-25-1C2与N297突变的Fc融合后得到的抗原结合蛋白) VH: EVQLQESGPGLVKPSETLSLTCTVSGFSLTSYAISWIRQPPGKGLEWIGVIWTGGGTNYNSALKSRVTISKDTSKNQVSLKLSSVTAADTAVYYCARDHYGTSPFVYWGQGTLVTVSS VL: DIVLTQTPLSLSVTPGQPASISCRASESVDNYGISFMNWFLQKPGQPPQLLIYAASNQGSGVPDRFSGSGSGTDFTLKISRVEAEDVGVYFCQQSLEVPWTFGGGTKVEIK", 0.375),
    ("1C2-3C11-W52F-Agly-YTE (antibody, V domains shown, 19D4-25-1C2-3C11 with W52F and an Fc with YTE (M252Y, S254T, T256E) and N297A; The label itself is not defined in the text) VH: EVQLQESGPGLVKPSETLSLTCTVSGFSLTSYAISWIRQPPGKGLEWIGVIFTGGGTNYNSALKSRVTISKDTSKNQVSLKLSSVTAADTAVYYCAREHYGTSPFVYWGQGTLVTVSS VL: DIVLTQTPLSLSVTPGQPASISCRASESVDNYGISFMNWFLQKPGQPPQLLIYAASNQGSGVPDRFSGSGSGTDFTLKISRVEAEDVGVYFCQQSLEVPWTFGGGTKVEIK", 0.495),
    ("1C2-Agly-YTE (antibody, V domains shown, also called 19D4-25-1C2与YTE突变、N297突变的Fc融合后得到的抗原结合蛋白) VH: EVQLQESGPGLVKPSETLSLTCTVSGFSLTSYAISWIRQPPGKGLEWIGVIWTGGGTNYNSALKSRVTISKDTSKNQVSLKLSSVTAADTAVYYCARDHYGTSPFVYWGQGTLVTVSS VL: DIVLTQTPLSLSVTPGQPASISCRASESVDNYGISFMNWFLQKPGQPPQLLIYAASNQGSGVPDRFSGSGSGTDFTLKISRVEAEDVGVYFCQQSLEVPWTFGGGTKVEIK", 0.492),
]

Read the next record carefully.
Noted for 3C11-Agly-YTE (antibody, V domains shown, also called 19D4-25-3C11与YTE突变、N297突变的Fc融合后得到的抗原结合蛋白) VH: EVQLQESGPGLVKPSETLSLTCTVSGFSLTSYAISWIRQPPGKGLEWIGVIWTGGGTNYNSALKSRVTISKDTSKNQVSLKLSSVTAADTAVYYCAREHYGTSPFVYWGQGTLVTVSS VL: DIVLTQTPLSLSVTPGQPASISCRASESVDNYGISFMNWFLQKPGQPPQLLIYAASNQGSGVPDRFSGSGSGTDFTLKISRVEAEDVGVYFCQQSKEVPWTFGGGTKVEIK : its IC50 reads 0.543
